% CAF @ 10 μM,1 h values by entry
# target system: mutant G12C K-RAS (Homo sapiens, UniProt P01116, G12C)
# Construct: made in house; host or cells: E. coli BL21
# assay summary: covalent adduct formation (CAF) with mutant G12C K-RAS
# Type: binding
# test conditions: Table 6; 10 μM, 1 h
measurement type: % CAF @ 10 μM,1 h (%)

{"compound": "C=CC(=O)N1C[C@H](C)N(c2nc(=O)n3c4c(c(-c5cccc6ccccc56)c(Cl)cc24)OC[C@H]3Cn2ccnc2)C[C@H]1C (atropisomer, axis not shown) [Example 317]", "measurement type": "% CAF @ 10 μM,1 h", "numeric value": 72.8}
{"compound": "C=CC(=O)N1C[C@H](C)N(c2nc(=O)n3c4c(c(-c5ccc(F)cc5F)c(Cl)cc24)OC[C@@H]3CC2CCN(C)CC2)C[C@H]1C [Example 324]", "measurement type": "% CAF @ 10 μM,1 h", "numeric value": 63.4}
{"compound": "C=CC(=O)N1C[C@H](C)N(c2nc(=O)n3c4c(c(-c5c(C)ccc6[nH]ncc56)c(Cl)cc24)OC[C@H]3Cn2cccn2)C[C@H]1C (atropisomer, axis not shown) [Example 320]", "measurement type": "% CAF @ 10 μM,1 h", "numeric value": 94.2}
{"compound": "C=CC(=O)N1C[C@H](C)N(c2nc(=O)n3c4c(c(-c5ccc(F)cc5F)c(Cl)cc24)OC[C@H]3CN2CCN(C)CC2)C[C@H]1C [Example 256]", "measurement type": "% CAF @ 10 μM,1 h", "numeric value": 80.1}
{"compound": "C=CC(=O)N1C[C@H](C)N(c2nc(=O)n3c4c(c(-c5ccc(F)cc5F)c(Cl)cc24)OC[C@H]3CC2CCN(C3COC3)CC2)C[C@H]1C [Example 316]", "measurement type": "% CAF @ 10 μM,1 h", "numeric value": 84.2}
{"compound": "C=CC(=O)N1C[C@H](C)N(c2nc(=O)n3c4c(c(-c5ccc(F)cc5F)c(Cl)cc24)OC[C@H]3CCCN2C[C@@H]3C[C@H]2CO3)C[C@H]1C [Example 270]", "measurement type": "% CAF @ 10 μM,1 h", "numeric value": 96.4}
{"compound": "C=CC(=O)N1C[C@H](C)N(c2nc(=O)n3c4c(c(-c5ccc(F)cc5F)c(Cl)cc24)OC[C@@H]3CN2CCC2)C[C@H]1C [Example 232]", "measurement type": "% CAF @ 10 μM,1 h", "numeric value": 82.4}
{"compound": "C=CC(=O)N1C[C@H](C)N(c2nc(=O)n3c4c(c(-c5ccc(F)cc5F)c(Cl)cc24)O[C@@H](CCCO)C3)C[C@H]1C [Example 247]", "measurement type": "% CAF @ 10 μM,1 h", "numeric value": 42.2}
{"compound": "C=CC(=O)N1C[C@H](C)N(c2nc(=O)n3c4c(c(-c5c(O)cccc5F)c(Cl)cc24)OC[C@H]3CN2CCN(C)CC2)C[C@H]1C (atropisomer, axis not shown) [Example 301]", "measurement type": "% CAF @ 10 μM,1 h", "numeric value": 52.1}
{"compound": "C=CC(=O)N1C[C@H](C)N(c2nc(=O)n3c4c(c(-c5cccc6ccccc56)c(Cl)cc24)OC[C@H]3Cn2cccn2)C[C@H]1C (atropisomer, axis not shown) [Example 306]", "measurement type": "% CAF @ 10 μM,1 h", "numeric value": 73.5}
{"compound": "C=CC(=O)N1CCN(c2nc(=O)n3c4c(c(-c5c(O)cccc5F)c(Cl)cc24)OC[C@H]3CN2CCC(F)(F)C2)[C@@H](C)C1 (atropisomer, axis not shown) [Example 230]", "measurement type": "% CAF @ 10 μM,1 h", "numeric value": 75.9}
{"compound": "C=CC(=O)N1C[C@H](C)N(c2nc(=O)n3c4c(c(-c5c(O)cccc5F)c(Cl)cc24)OC[C@@H]3CN(C)CC(F)(F)F)C[C@H]1C (atropisomer, axis not shown) [Example 239]", "measurement type": "% CAF @ 10 μM,1 h", "numeric value": 3}
{"compound": "C=CC(=O)N1C[C@H](C)N(c2nc(=O)n3c4c(c(-c5ccc(F)cc5F)c(Cl)cc24)OC[C@H]3CCCN2C3CCC2COC3)C[C@H]1C [Example 254]", "measurement type": "% CAF @ 10 μM,1 h", "numeric value": 99.5}
{"compound": "C=CC(=O)N1CCN(c2nc(=O)n3c4c(c(-c5c(O)cccc5F)c(Cl)cc24)OC[C@@H]3CN2CCOCC2)[C@@H](C)C1 [Example 195]", "measurement type": "% CAF @ 10 μM,1 h", "numeric value": 0}
{"compound": "C=CC(=O)N1C[C@H](C)N(c2nc(=O)n3c4c(c(-c5ccc(F)cc5F)c(Cl)cc24)OC[C@H]3CN2CCOCC2)C[C@H]1C [Example 204]", "measurement type": "% CAF @ 10 μM,1 h", "numeric value": 82}

###

# target system: mutant G12C K-RAS (Homo sapiens, UniProt P01116, G12C)
# Construct: made in house; host or cells: E. coli BL21
# assay summary: covalent adduct formation (CAF) with mutant G12C K-RAS
# Format: binding
# test conditions: Table 6; 10 μM, 1 h
Mark each entry label 1 if its % CAF @ 10 μM,1 h sits below 90%, and label 0 for all others.

{"compound": "C=CC(=O)N1C[C@H](C)N(c2nc(=O)n3c4c(c(-c5ccc(F)cc5F)c(Cl)cc24)OC[C@@H]3CN2CCN(C)CC2)C[C@H]1C", "target system": "mutant G12C K-RAS (Homo sapiens, UniProt P01116, G12C)", "class label": "label 0"}
{"compound": "C=CC(=O)N1C[C@H](C)N(c2nc(=O)n3c4c(c(-c5ccc(F)cc5F)c(Cl)cc24)OC[C@H]3CN2CCN(C)CC2=O)C[C@H]1C", "target system": "mutant G12C K-RAS (Homo sapiens, UniProt P01116, G12C)", "class label": "label 1"}
{"compound": "C=CC(=O)N1C[C@H](C)N(c2nc(=O)n3c4c(c(-c5cccc6ccccc56)c(Cl)cc24)OC[C@@H]3CN2CCN(C)CC2)C[C@H]1C (atropisomer, axis not shown) [Example 308]", "target system": "mutant G12C K-RAS (Homo sapiens, UniProt P01116, G12C)", "class label": "label 1"}
{"compound": "C=CC(=O)N1C[C@H](C)N(c2nc(=O)n3c4c(c(-c5c(O)cccc5F)c(Cl)cc24)OC[C@@H]3CCCN2CCOCC2)C[C@H]1C (atropisomer, axis not shown) [Example 226]", "target system": "mutant G12C K-RAS (Homo sapiens, UniProt P01116, G12C)", "class label": "label 0"}
{"compound": "C=CC(=O)N1C[C@H](C)N(c2nc(=O)n3c4c(c(-c5c(C)ccc6[nH]nnc56)ccc24)OCC3)C[C@H]1C", "target system": "mutant G12C K-RAS (Homo sapiens, UniProt P01116, G12C)", "class label": "label 1"}
{"compound": "C=CC(=O)N1C[C@H](C)N(c2nc(=O)n3c4c(c(-c5ccc(F)cc5F)c(Cl)cc24)O[C@H](CCCN2C4CCC2COC4)C3)C[C@H]1C", "target system": "mutant G12C K-RAS (Homo sapiens, UniProt P01116, G12C)", "class label": "label 1"}
{"compound": "C=CC(=O)N1C[C@H](C)N(c2nc(=O)n3c4c(c(-c5ccc(F)cc5F)c(Cl)cc24)OC[C@H]3CCCN2CCC(F)(F)C2)C[C@H]1C", "target system": "mutant G12C K-RAS (Homo sapiens, UniProt P01116, G12C)", "class label": "label 0"}
{"compound": "C=CC(=O)N1CCN(c2nc(=O)n3c4c(c(-c5c(O)cccc5F)c(Cl)cc24)OC[C@@H]3CN2CCC(F)(F)C2)[C@@H](C)C1 (atropisomer, axis not shown) [Example 228]", "target system": "mutant G12C K-RAS (Homo sapiens, UniProt P01116, G12C)", "class label": "label 0"}
{"compound": "C=CC(=O)N1C[C@H](C)N(c2nc(=O)n3c4c(c(-c5c(O)cccc5F)c(Cl)cc24)OC[C@H]3CN(C)CC(F)(F)F)C[C@H]1C (atropisomer, axis not shown) [Example 242]", "target system": "mutant G12C K-RAS (Homo sapiens, UniProt P01116, G12C)", "class label": "label 1"}
{"compound": "C=CC(=O)N1C[C@H](C)N(c2nc(=O)n3c4c(c(-c5c(F)ccc6[nH]nnc56)ccc24)OCC3)C[C@H]1C", "target system": "mutant G12C K-RAS (Homo sapiens, UniProt P01116, G12C)", "class label": "label 1"}
{"compound": "C=CC(=O)N1C[C@H](C)N(c2nc(=O)n3c4c(c(-c5ccc(F)cc5F)c(Cl)cc24)OC[C@@H]3CCCN2CCS(=O)(=O)CC2)C[C@H]1C", "target system": "mutant G12C K-RAS (Homo sapiens, UniProt P01116, G12C)", "class label": "label 1"}
{"compound": "C=CC(=O)N1CCN(c2nc(=O)n3c4c(c(-c5ccc(F)cc5F)c(Cl)cc24)OCC3)[C@@H](CO)C1", "target system": "mutant G12C K-RAS (Homo sapiens, UniProt P01116, G12C)", "class label": "label 1"}
